B1: VTI1B (parent)
chain: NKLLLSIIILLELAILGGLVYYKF

Variants of: B1
Method Notes: protein stability index of a GFP-peptide fusion (GPS, HEK-293T) (PSI 1-6); higher = more stable;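 further: lentivirally expressed fusions sorted by FACS into six bins by GFP to DsRed ratio, PSI derived from sequencing read proportions per bin multiplied by bin number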
Protocol Conditions: c terminus: a fixed tail appended
Metric Name: protein stability index

[[record]]
variant_identifier = "Y22M"
metric_name = "protein stability index"
result_value = 3.54

[[record]]
variant_identifier = "L19C"
metric_name = "protein stability index"
result_value = 2.05

[[record]]
variant_identifier = "L19W"
metric_name = "protein stability index"
result_value = 2.91

